System Under Test: UniProtKB Q9NYK1
Assay Remarks: Agonist activity on human TLR7 in HEK-Blue hTLR7 cells
Type: cell-based
Condition Parameters: 16 hours, OD 620 nm
Assay Metric: Emax (%)

>  <Compound>
CCCCC(C)(CO)Nc1nc(N)nc2cc(-c3ccc(CN4CCNCC4)nc3)cnc12 (centres unmarked)

>  <System Under Test>
UniProtKB Q9NYK1

>  <Emax / %>
5

$$$$
>  <Compound>
CCCCC(C)(CO)Nc1nc(N)nc2cc(-c3ccc(CN4CCN(C)CC4)nc3)cnc12 (centres unmarked)

>  <System Under Test>
UniProtKB Q9NYK1

>  <Emax / %>
14

$$$$
>  <Compound>
CCCC[C@](C)(CO)Nc1nc(N)nc2cc(-c3ccc(CN4CCN(C)CC4)nc3)cnc12

>  <System Under Test>
UniProtKB Q9NYK1

>  <Emax / %>
14

$$$$

P = CCCC[C@](C)(CO)Nc1nc(N)nc2cc(-c3ccc(C4CCN(C)CC4)nc3)cnc12
Q = CCCC[C@](C)(CO)Nc1nc(N)nc2cc(-c3cnc(C4CCN(C)CC4)nc3)cnc12
Prompt line: Higher Emax between P and Q ? Mark your selection by writing its label.
Response line: Q
(Q: 73%, P: 12%)

====

System Under Test: hERG potassium channel (Homo sapiens (Human), UniProt Q12809)
Sequence (Q12809 whole entry): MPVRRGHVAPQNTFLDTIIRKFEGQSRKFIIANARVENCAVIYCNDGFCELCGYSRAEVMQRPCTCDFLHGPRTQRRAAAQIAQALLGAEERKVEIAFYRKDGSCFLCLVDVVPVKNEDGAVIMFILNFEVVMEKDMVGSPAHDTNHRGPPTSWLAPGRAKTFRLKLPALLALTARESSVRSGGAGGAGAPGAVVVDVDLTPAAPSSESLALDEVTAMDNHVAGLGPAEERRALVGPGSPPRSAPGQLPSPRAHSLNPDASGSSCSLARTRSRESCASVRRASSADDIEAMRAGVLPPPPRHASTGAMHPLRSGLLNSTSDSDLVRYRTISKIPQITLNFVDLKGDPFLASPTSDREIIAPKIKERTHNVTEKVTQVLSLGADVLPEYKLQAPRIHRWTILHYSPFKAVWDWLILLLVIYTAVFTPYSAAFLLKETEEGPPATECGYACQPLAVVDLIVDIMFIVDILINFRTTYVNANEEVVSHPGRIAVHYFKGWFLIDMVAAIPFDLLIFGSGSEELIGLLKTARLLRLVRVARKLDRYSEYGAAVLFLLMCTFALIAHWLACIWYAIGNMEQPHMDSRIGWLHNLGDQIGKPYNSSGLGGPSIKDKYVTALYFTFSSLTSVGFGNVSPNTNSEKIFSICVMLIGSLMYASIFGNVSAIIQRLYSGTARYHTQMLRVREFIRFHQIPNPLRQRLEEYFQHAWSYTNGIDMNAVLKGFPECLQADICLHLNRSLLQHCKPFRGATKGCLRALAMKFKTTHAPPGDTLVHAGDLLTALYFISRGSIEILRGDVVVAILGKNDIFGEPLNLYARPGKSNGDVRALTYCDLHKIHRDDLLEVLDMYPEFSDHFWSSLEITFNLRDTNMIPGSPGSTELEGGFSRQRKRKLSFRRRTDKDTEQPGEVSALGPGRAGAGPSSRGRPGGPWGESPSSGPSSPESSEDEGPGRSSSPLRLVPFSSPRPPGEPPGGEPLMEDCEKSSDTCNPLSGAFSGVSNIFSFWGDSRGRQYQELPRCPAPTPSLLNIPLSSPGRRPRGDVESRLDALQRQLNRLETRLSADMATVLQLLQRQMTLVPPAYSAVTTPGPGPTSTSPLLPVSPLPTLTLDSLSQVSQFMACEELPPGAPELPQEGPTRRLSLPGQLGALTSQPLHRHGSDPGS
Assay Remarks: Blocking effect on hERG potassium current, automatic patch clamp (Patchliner) on HEK293-hERG stable cell line
Procedure: The blocking effect of the compounds of the present application on hERG potassium current was determined using an automatic patch-clamp on a stable cell line transfected with hERG potassium channels. The HEK293 cell line was transfected with pCDNA3.1(+) that had constructed the hERG gene. The monoclonal HEK293-hERG stable cell line was screened by adding G418. […]
Catalogue of molecules with associated pIC50
pIC50 is a log-scale quantity: -log10 of the concentration expressed in molar.

>  <Molecule>
CCCCC(C)(CO)Nc1nc(N)nc2cc(-c3ccc(CN4CCN(C)CC4)nc3)cnc12 (centres unmarked)

>  <pIC50>
4.77

$$$$

Prompt line: Recall and state the measured pIC50 for CCCC[C@](C)(CO)Nc1nc(N)nc2cc(-c3ccc(CN4CCCC4)nc3)cnc12 .
Response line: 5.15

Prompt line: Recall and state the measured pIC50 for CCCC[C@](C)(CO)Nc1nc(N)nc2cc(-c3ccc(C4CCN(C)CC4)nc3)cnc12 .
Response line: 4.85

Prompt line: Recall and state the measured pIC50 for CCCC[C@](C)(CO)Nc1nc(N)nc2cc(-c3ccc(CN4CCN(C)CC4)nc3)cnc12 .
Response line: 4.59

====

Tested on: peripheral blood mononuclear cells (PBMC)
Assay Remarks: Stimulation of IFNγ secretion from PBMC
Type: cell-based
Condition Parameters: minimum effective concentration, human PBMC, 24 hours
Assay Metric: IFNγ MEC (nM)
Kindly provide the numeric value in nM only, without the unit symbol.

Some compounds with known IFNγ MEC results, for comparison:
>  <Compound>
CCCC[C@](C)(CO)Nc1nc(N)nc2cc(-c3ccc(CN4CCCC4)nc3)cnc12

>  <System Under Test>
peripheral blood mononuclear cells (PBMC)

>  <Units>
nM

>  <IFNγ MEC>
24

$$$$
>  <Compound>
CCCCC(C)(CO)Nc1nc(N)nc2cc(-c3ccc(C4CCN(C)CC4)nc3)cnc12 (stereo not shown)

>  <System Under Test>
peripheral blood mononuclear cells (PBMC)

>  <Units>
nM

>  <IFNγ MEC>
27

$$$$
>  <Compound>
CCCCC(C)(CO)Nc1nc(N)nc2cc(-c3ccc(CN4CCNCC4)nc3)cnc12 (stereo not shown)

>  <System Under Test>
peripheral blood mononuclear cells (PBMC)

>  <Units>
nM

>  <IFNγ MEC>
94

$$$$

Prompt line: Given CCCC[C@](C)(CO)Nc1nc(N)nc2cc(-c3ccc(C4CCN(C)CC4)nc3)cnc12 , report its IFNγ MEC on peripheral blood mononuclear cells (PBMC).
Response line: 33

====

System Under Test: CYP3A4 (testosterone metabolite site) (Homo sapiens (Human))
Sequence (P08684 whole entry): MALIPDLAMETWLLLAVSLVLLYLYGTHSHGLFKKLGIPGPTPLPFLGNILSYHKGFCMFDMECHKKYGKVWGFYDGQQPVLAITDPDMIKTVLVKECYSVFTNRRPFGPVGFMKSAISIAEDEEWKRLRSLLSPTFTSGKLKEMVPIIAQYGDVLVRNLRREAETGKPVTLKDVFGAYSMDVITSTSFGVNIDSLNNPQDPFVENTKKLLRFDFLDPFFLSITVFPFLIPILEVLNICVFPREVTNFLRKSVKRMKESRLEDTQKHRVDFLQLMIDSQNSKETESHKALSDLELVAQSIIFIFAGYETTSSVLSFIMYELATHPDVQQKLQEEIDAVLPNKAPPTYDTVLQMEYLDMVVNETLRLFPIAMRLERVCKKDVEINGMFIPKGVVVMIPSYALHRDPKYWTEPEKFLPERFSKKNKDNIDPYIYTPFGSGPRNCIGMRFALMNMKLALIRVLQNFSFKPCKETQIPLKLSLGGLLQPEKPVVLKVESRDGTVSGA
Assay Remarks: Inhibition of enzyme activity of testosterone metabolite site of CYP3A4 in human liver microsomes
Assay type: in vitro ADME
Condition Parameters: human liver microsome, testosterone probe substrate, 30 minutes
Assay Metric: IC50 (µM)

A = CCCC[C@](C)(CO)Nc1nc(N)nc2cc(-c3ccc(C4CCN(C)CC4)nc3)cnc12
B = CCCCC(C)(CO)Nc1nc(N)nc2cc(-c3ccc(CN4CCN(C)CC4)nc3)cnc12 (stereo not shown)
Prompt line: Consider entries A and B . Which has the numerically lower IC50? Mark your selection by writing its label.
Response line: B

====

System Under Test: human TLR7 (Homo sapiens (Human), UniProt Q9NYK1)
Sequence (Q9NYK1 27-1049): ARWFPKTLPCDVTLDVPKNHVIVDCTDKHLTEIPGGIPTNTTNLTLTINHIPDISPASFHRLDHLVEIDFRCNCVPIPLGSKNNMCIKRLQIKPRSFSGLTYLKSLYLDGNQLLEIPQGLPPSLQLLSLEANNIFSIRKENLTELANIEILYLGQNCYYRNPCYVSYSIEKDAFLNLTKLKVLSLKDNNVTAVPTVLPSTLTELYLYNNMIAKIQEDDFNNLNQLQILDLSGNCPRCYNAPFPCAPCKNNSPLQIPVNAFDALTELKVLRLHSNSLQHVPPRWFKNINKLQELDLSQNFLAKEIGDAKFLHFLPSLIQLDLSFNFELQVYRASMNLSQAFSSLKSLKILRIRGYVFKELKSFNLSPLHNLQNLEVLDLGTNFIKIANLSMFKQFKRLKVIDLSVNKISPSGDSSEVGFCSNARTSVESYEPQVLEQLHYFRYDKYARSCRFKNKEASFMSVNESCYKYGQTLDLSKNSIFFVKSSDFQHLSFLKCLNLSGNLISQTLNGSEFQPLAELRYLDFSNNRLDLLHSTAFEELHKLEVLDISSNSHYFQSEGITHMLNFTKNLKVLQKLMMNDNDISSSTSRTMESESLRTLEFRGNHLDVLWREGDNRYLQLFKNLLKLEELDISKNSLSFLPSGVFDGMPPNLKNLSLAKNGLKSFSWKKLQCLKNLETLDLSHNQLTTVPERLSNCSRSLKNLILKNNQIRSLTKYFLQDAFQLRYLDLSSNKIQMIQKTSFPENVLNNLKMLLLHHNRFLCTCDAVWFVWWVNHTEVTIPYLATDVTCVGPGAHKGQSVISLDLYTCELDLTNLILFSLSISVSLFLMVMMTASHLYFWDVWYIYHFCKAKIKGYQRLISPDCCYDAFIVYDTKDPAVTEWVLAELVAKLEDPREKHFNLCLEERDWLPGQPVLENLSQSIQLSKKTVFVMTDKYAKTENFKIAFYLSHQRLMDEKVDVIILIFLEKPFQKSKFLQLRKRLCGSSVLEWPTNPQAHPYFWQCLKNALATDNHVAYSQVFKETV
Assay Remarks: Agonist activity on human TLR7 in HEK-Blue hTLR7 cells
Condition Parameters: 16 hours, OD 620 nm
pEC50: −log10 of the molar value.
Assay Metric: pEC50

>  <Molecule>
CCCC[C@](C)(CO)Nc1nc(N)nc2cc(-c3cnc(C4CCN(C)CC4)nc3)cnc12 [Example 8]

>  <pEC50>
< 4.72

$$$$
>  <Molecule>
CCCCC(C)(CO)Nc1nc(N)nc2cc(-c3ccc(CN4CCNCC4)nc3)cnc12 (centres unmarked) [Example 9]

>  <pEC50>
< 4.52

$$$$
>  <Molecule>
CCCC[C@](C)(CO)Nc1nc(N)nc2cc(-c3ccc(CN4CCN(C)CC4)nc3)cnc12 [Example 6]

>  <pEC50>
< 4.52

$$$$
>  <Molecule>
CCCC[C@](C)(CO)Nc1nc(N)nc2cc(-c3ccc(C4CCN(C)CC4)nc3)cnc12 [Example 4]

>  <pEC50>
< 4.52

$$$$

Next molecule, please.
Prompt line: Recall and state the measured pEC50 for CCCCC(C)(CO)Nc1nc(N)nc2cc(-c3ccc(CN4CCN(C)CC4)nc3)cnc12 (centres unmarked) [Example 5] .
Response line: < 4.52

====

System Under Test: human TLR8 (Homo sapiens (Human), UniProt Q9NR97)
Sequence (Q9NR97 27-1041): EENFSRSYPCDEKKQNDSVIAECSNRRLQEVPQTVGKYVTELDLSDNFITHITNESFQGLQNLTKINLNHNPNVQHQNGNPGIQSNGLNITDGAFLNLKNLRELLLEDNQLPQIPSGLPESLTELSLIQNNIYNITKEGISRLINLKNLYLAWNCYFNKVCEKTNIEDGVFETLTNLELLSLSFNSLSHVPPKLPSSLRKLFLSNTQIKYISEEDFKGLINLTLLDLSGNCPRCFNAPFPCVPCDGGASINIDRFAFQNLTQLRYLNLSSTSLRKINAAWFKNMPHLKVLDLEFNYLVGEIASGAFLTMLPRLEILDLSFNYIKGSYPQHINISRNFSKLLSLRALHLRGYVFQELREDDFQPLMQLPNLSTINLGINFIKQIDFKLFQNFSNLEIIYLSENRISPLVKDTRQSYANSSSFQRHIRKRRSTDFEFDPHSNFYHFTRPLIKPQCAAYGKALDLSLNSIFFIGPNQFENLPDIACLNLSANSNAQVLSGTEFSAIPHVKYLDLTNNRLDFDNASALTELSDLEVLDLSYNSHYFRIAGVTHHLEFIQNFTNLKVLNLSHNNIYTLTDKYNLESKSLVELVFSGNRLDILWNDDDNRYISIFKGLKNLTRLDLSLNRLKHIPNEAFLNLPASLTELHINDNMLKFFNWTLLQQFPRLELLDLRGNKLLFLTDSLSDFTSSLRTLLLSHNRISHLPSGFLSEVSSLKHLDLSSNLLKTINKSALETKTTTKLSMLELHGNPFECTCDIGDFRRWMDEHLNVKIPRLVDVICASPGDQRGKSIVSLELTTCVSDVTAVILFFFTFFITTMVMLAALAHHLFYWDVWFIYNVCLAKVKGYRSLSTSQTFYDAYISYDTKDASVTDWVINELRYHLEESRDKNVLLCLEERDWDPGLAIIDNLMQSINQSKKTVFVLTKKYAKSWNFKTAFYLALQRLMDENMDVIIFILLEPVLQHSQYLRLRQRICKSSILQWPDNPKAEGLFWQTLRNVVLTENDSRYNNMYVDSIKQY
Assay Remarks: Agonist activity on human TLR8 in HEK-Blue hTLR8 stably transfected cells
Condition Parameters: 16 hours, OD 620 nm
pEC50: −log10 of the molar value.
Assay Metric: pEC50

Some compounds with known pEC50 results, for comparison:
>  <Compound>
CCCCC(C)(CO)Nc1nc(N)nc2cc(-c3ccc(C4CCN(C)CC4)nc3)cnc12 (stereo not drawn)

>  <pEC50>
7.00

$$$$
>  <Compound>
CCCCC(C)(CO)Nc1nc(N)nc2cc(-c3ccc(CN4CCNCC4)nc3)cnc12 (stereo not drawn)

>  <pEC50>
6.82

$$$$

1 = CCCC[C@](C)(CO)Nc1nc(N)nc2cc(-c3ccc(CN4CCCC4)nc3)cnc12
2 = CCCCC(C)(CO)Nc1nc(N)nc2cc(-c3ccc(CN4CCN(C)CC4)nc3)cnc12 (stereo not drawn)
3 = CCCCC(C)(CO)Nc1nc(N)nc2cc(-c3ccc(CN4CCCC4)nc3)cnc12 (stereo not drawn)
4 = CCCC[C@](C)(CO)Nc1nc(N)nc2cc(-c3cnc(C4CCN(C)CC4)nc3)cnc12
Prompt line: Order each entry by recorded pEC50, climbing from the minimum. Answer by writing out the labels in the requested order.
Response line: 2, 3, 1, 4

====

System Under Test: human TLR8 (Homo sapiens (Human), UniProt Q9NR97)
Assay Remarks: Agonist activity on human TLR8 in HEK-Blue hTLR8 stably transfected cells
Assay type: cell-based
Condition Parameters: 16 hours, OD 620 nm
Assay Metric: Emax (%)

>  <Molecule>
CCCCC(C)(CO)Nc1nc(N)nc2cc(-c3ccc(CN4CCN(C)CC4)nc3)cnc12 (stereo not drawn)

>  <System Under Test>
human TLR8 (Homo sapiens (Human), UniProt Q9NR97)

>  <Observed Measurement>
110

$$$$
>  <Molecule>
CCCC[C@](C)(CO)Nc1nc(N)nc2cc(-c3ccc(CN4CCN(C)CC4)nc3)cnc12

>  <System Under Test>
human TLR8 (Homo sapiens (Human), UniProt Q9NR97)

>  <Observed Measurement>
107

$$$$
>  <Molecule>
CCCC[C@](C)(CO)Nc1nc(N)nc2cc(-c3cnc(C4CCN(C)CC4)nc3)cnc12

>  <System Under Test>
human TLR8 (Homo sapiens (Human), UniProt Q9NR97)

>  <Observed Measurement>
114

$$$$
>  <Molecule>
CCCC[C@](C)(CO)Nc1nc(N)nc2cc(-c3ccc(CN4CCCC4)nc3)cnc12

>  <System Under Test>
human TLR8 (Homo sapiens (Human), UniProt Q9NR97)

>  <Observed Measurement>
106

$$$$
>  <Molecule>
CCCCC(C)(CO)Nc1nc(N)nc2cc(-c3ccc(CN4CCNCC4)nc3)cnc12 (stereo not drawn)

>  <System Under Test>
human TLR8 (Homo sapiens (Human), UniProt Q9NR97)

>  <Observed Measurement>
103

$$$$
>  <Molecule>
CCCCC(C)(CO)Nc1nc(N)nc2cc(-c3ccc(C4CCN(C)CC4)nc3)cnc12 (stereo not drawn)

>  <System Under Test>
human TLR8 (Homo sapiens (Human), UniProt Q9NR97)

>  <Observed Measurement>
104

$$$$
>  <Molecule>
CCCCC(C)(CO)Nc1nc(N)nc2cc(-c3ccc(CN4CCCC4)nc3)cnc12 (stereo not drawn)

>  <System Under Test>
human TLR8 (Homo sapiens (Human), UniProt Q9NR97)

>  <Observed Measurement>
97

$$$$
>  <Molecule>
CCCC[C@](C)(CO)Nc1nc(N)nc2cc(-c3ccc(C4CCN(C)CC4)nc3)cnc12

>  <System Under Test>
human TLR8 (Homo sapiens (Human), UniProt Q9NR97)

>  <Observed Measurement>
97

$$$$
>  <Molecule>
CCCC[C@](C)(CO)Nc1nc(N)nc2cc(-c3cnc(CN4CCN(C)CC4)nc3)cnc12

>  <System Under Test>
human TLR8 (Homo sapiens (Human), UniProt Q9NR97)

>  <Observed Measurement>
116

$$$$
